Dear all, this message contains MIC results, target or system Aspergillus fumigatus.
Give a bare numeral; the unit µg/mL is implied.

Data request, read-out MIC, for "C[C@@H](N1CCN(c2ccc(-n3cnn(Cc4ccc(F)cc4F)c3=O)cc2)CC1)[C@](O)(Cn1cncn1)c1ccc(F)cc1F"
0.048

Another compound: "C[C@@H](N1CCN(c2ccc(-n3cnn(CC(F)(F)C(F)F)c3=O)cc2)CC1)[C@](O)(Cn1cncn1)c1ccc(F)cc1F"
0.048

Another compound: CCC(C)n1ncn(-c2ccc(N3CCN([C@H](C)[C@](O)(Cn4cncn4)c4ccc(F)cc4F)CC3)cc2)c1=O (stereo partly drawn)
0.39

Another compound: "CCC(CC)n1ncn(-c2ccc(N3CCN([C@H](C)[C@](O)(Cn4cncn4)c4ccc(F)cc4F)CC3)cc2)c1=O"
0.39

Another compound: "CC(C)n1ncn(-c2ccc(N3CCN([C@H](C)[C@](O)(Cn4cncn4)c4ccc(F)cc4F)CC3)cc2)c1=O"
0.78

Another compound: CCC(C)n1ncn(-c2ccc(N3CCN(c4ccc(OCC5COC(Cn6cncn6)(c6ccc(Cl)cc6Cl)O5)cc4)CC3)cc2)c1=O (stereo not drawn) [Itraconazole, reference compound]
0.19

Another compound: CC(O)Cn1ncn(-c2ccc(N3CCN([C@H](C)[C@](O)(Cn4cncn4)c4ccc(F)cc4F)CC3)cc2)c1=O (stereo partly drawn)
0.39

Another compound: "C[C@@H](N1CCN(c2ccc(-n3cnn(Cc4ccc(C(F)(F)F)cc4)c3=O)cc2)CC1)[C@](O)(Cn1cncn1)c1ccc(F)cc1F"
0.19

---

# Tested on: Candida albicans
# EXPERIMENT: In vitro antifungal activity (minimum inhibitory concentration), Candida albicans
# Type: cell-based
# MEASUREMENT_CONDITIONS: 48 h at 37° C.
MEASURED_PARAMETER: MIC

Data request, read-out MIC, for OC(Cn1cncn1)(Cn1cncn1)c1ccc(F)cc1F [Fluconazole, reference compound]
0.78 µg/mL

Another compound: CC(O)Cn1ncn(-c2ccc(N3CCN([C@H](C)[C@](O)(Cn4cncn4)c4ccc(F)cc4F)CC3)cc2)c1=O (stereo partly drawn) [Example 42]
0.09 µg/mL

Another compound: CCC(C)n1ncn(-c2ccc(N3CCN(c4ccc(OCC5COC(Cn6cncn6)(c6ccc(Cl)cc6Cl)O5)cc4)CC3)cc2)c1=O (stereo not drawn) [Itraconazole, reference compound]
0.09 µg/mL

Another compound: CC(C)n1ncn(-c2ccc(N3CCN([C@H](C)[C@](O)(Cn4cncn4)c4ccc(F)cc4F)CC3)cc2)c1=O [Example 41]
0.09 µg/mL

Another compound: C[C@@H](N1CCN(c2ccc(-n3cnn(CC(F)(F)C(F)F)c3=O)cc2)CC1)[C@](O)(Cn1cncn1)c1ccc(F)cc1F [Example 44]
0.048 µg/mL

Another compound: C[C@@H](N1CCN(c2ccc(-n3cnn(Cc4ccc(C(F)(F)F)cc4)c3=O)cc2)CC1)[C@](O)(Cn1cncn1)c1ccc(F)cc1F [Example 43]
0.048 µg/mL

Another compound: CCC(CC)n1ncn(-c2ccc(N3CCN([C@H](C)[C@](O)(Cn4cncn4)c4ccc(F)cc4F)CC3)cc2)c1=O [Example 36]
0.09 µg/mL

Another compound: CCC(C)n1ncn(-c2ccc(N3CCN([C@H](C)[C@](O)(Cn4cncn4)c4ccc(F)cc4F)CC3)cc2)c1=O (stereo partly drawn) [Example 40]
0.09 µg/mL

Another compound: C[C@@H](N1CCN(c2ccc(-n3cnn(Cc4ccc(F)cc4F)c3=O)cc2)CC1)[C@](O)(Cn1cncn1)c1ccc(F)cc1F [Example 46]
0.048 µg/mL
